Provenance of the data: ChEMBL document CHEMBL1137710

test: Growth inhibition of human […] cells after 48 hrs by sulforhodamine B assay; assay type: functional
Assignment: determine reported log10 GI50 for the given compounds.
Remember, log10 of GI50, in µM.

As a guide, the following entries are already answered.
COc1cc(OC)cc(Oc2nc3cc(N)cc(N)c3nc2-c2ccccc2)c1: 0.46
COc1cc(CNc2nc3cc(N)cc(N)c3nc2-c2ccccc2)cc(OC)c1: 0.34
Nc1cc(N)c2nc(-c3ccccc3)c(Sc3ccc(Cl)c(Cl)c3)nc2c1: 0.58

Provide the reported log10 GI50 of each entry below, same order.
1. COc1ccc(Sc2nc3cc(N)cc(N)c3nc2-c2ccccc2)cc1
2. Nc1cc(N)c2nc(-c3ccccc3)c(Oc3ccc(Cl)c(Cl)c3)nc2c1
3. COc1ccc(CNc2nc3cc(N)cc(N)c3nc2-c2ccccc2)cc1OC
4. Nc1cc(N)c2nc(-c3ccccc3)c(Sc3ccc(F)cc3)nc2c1

[out]
[0.60, 0.54, 0.33, 1.45]

Provide the reported log10 GI50 of each entry below, same order.
1. Nc1cc(N)c2nc(-c3ccccc3)c(NCc3ccc(Cl)c(Cl)c3)nc2c1
2. COc1ccc(Oc2nc3cc(N)cc(N)c3nc2-c2ccccc2)cc1
3. Nc1cc(N)c2nc(-c3ccccc3)c(Oc3ccc(F)cc3)nc2c1

[out]
1. 0.22
2. 1.02
3. 1.09
